Test system: EPLC-272H
Experiment: relative viability (nuclei count vs DMSO), 5 days (fraction); higher = more cells survive
Conditions: first compound 20 µM
ENDPOINT: relative viability

1) Cc1csc(=NC2CCCCC2)n1/N=C/c1ccc(O)c(O)c1O [MIM1] + CC1(C)CCC(c2ccc(Cl)cc2)=C(CN2CCN(c3ccc(C(=O)NS(=O)(=O)c4ccc(N[C@H](CCN5CCOCC5)CSc5ccccc5)c(S(=O)(=O)C(F)(F)F)c4)cc3)CC2)C1 [Navitoclax] (partner 0.5 µM) | 0.199
2) Cc1csc(=NC2CCCCC2)n1/N=C/c1ccc(O)c(O)c1O [MIM1] + COc1cccc2cc(-c3nc([C@H]4CC[C@H](C(=O)O)CC4)n4ncnc(N)c34)[nH]c12 [OSI-027] (partner 0.5 µM) | 0.141

---

Test system: NCI-H1944
Assay: relative viability (nuclei count vs DMSO), 5 days (fraction); higher = more cells survive
Conditions: first compound 0.02 µM
Reported relative viability values are given for each entry in this list.
ENDPOINT: relative viability

1) CN1CCN(CCOc2cc(OC3CCOCC3)c3c(Nc4c(Cl)ccc5c4OCO5)ncnc3c2)CC1 [Saracatinib] + C[C@@H](Oc1cc(-c2cnn(C3CCNCC3)c2)cnc1N)c1c(Cl)ccc(F)c1Cl [Crizotinib] (partner 1 µM) | 1.11
2) CCNC(=O)c1noc(-c2cc(C(C)C)c(O)cc2O)c1-c1ccc(CN2CCOCC2)cc1 [Luminespib] + CC1(C)CCC(c2ccc(Cl)cc2)=C(CN2CCN(c3ccc(C(=O)NS(=O)(=O)c4ccc(N[C@H](CCN5CCOCC5)CSc5ccccc5)c(S(=O)(=O)C(F)(F)F)c4)cc3)CC2)C1 [Navitoclax] (partner 0.5 µM) | 0.708
3) CN1CCN(CCOc2cc(OC3CCOCC3)c3c(Nc4c(Cl)ccc5c4OCO5)ncnc3c2)CC1 [Saracatinib] + COc1cccc2cc(-c3nc([C@H]4CC[C@H](C(=O)O)CC4)n4ncnc(N)c34)[nH]c12 [OSI-027] (partner 0.5 µM) | 0.43
4) CCNC(=O)c1noc(-c2cc(C(C)C)c(O)cc2O)c1-c1ccc(CN2CCOCC2)cc1 [Luminespib] + CS(=O)(=O)CCNCc1ccc(-c2ccc3ncnc(Nc4ccc(OCc5cccc(F)c5)c(Cl)c4)c3c2)o1 [Lapatinib] (partner 2 µM) | 0.445

---

System: NCI-H661
Experiment: relative viability (nuclei count vs DMSO), 5 days (fraction); higher = more cells survive
Settings: first compound 0.253 µM
Define the label as criterion met when relative viability is strictly less than 0.5 and as criterion not met in all remaining cases.

1) Nc1cccc2c1CN(C1CCC(=O)NC1=O)C2=O (configuration not stated) [Lenalidomide] + C[C@]1(O)C[C@@H](c2nc(-c3ccc4ccc(-c5ccccc5)nc4c3)c3c(N)nccn32)C1 [Linsitinib] (partner 1 µM) | criterion met
2) Nc1cccc2c1CN(C1CCC(=O)NC1=O)C2=O (configuration not stated) [Lenalidomide] + CC(=O)Nc1cccc(-n2c(=O)n(C3CC3)c(=O)c3c(Nc4ccc(I)cc4F)n(C)c(=O)c(C)c32)c1 [Trametinib] (partner 0.02 µM) | criterion not met
3) Nc1cccc2c1CN(C1CCC(=O)NC1=O)C2=O (configuration not stated) [Lenalidomide] + CC(=O)c1c(C)c2cnc(Nc3ccc(N4CCNCC4)cn3)nc2n(C2CCCC2)c1=O [Palbociclib] (partner 0.5 µM) | criterion met
4) Nc1cccc2c1CN(C1CCC(=O)NC1=O)C2=O (configuration not stated) [Lenalidomide] + CS(=O)(=O)N1CCN(Cc2cc3nc(-c4cccc5[nH]ncc45)nc(N4CCOCC4)c3s2)CC1 [Pictilisib] (partner 1 µM) | criterion not met
5) Nc1cccc2c1CN(C1CCC(=O)NC1=O)C2=O (configuration not stated) [Lenalidomide] + C[C@@H](Oc1cc(-c2cnn(C3CCNCC3)c2)cnc1N)c1c(Cl)ccc(F)c1Cl [Crizotinib] (partner 1 µM) | criterion not met
6) Nc1cccc2c1CN(C1CCC(=O)NC1=O)C2=O (configuration not stated) [Lenalidomide] + Cc1nc(NC(=O)N2CCC[C@H]2C(N)=O)sc1-c1ccnc(C(C)(C)C(F)(F)F)c1 [Alpelisib] (partner 2 µM) | criterion not met
7) Nc1cccc2c1CN(C1CCC(=O)NC1=O)C2=O (configuration not stated) [Lenalidomide] + Nc1ncn([C@H]2C[C@H](O)[C@@H](CO)O2)c(=O)n1 [Decitabine] (partner 2 µM) | criterion not met
